- system-under-test: D(2) dopamine receptor (Homo sapiens) (UniProt P14416)
- Sequence (P14416 whole entry, looked up): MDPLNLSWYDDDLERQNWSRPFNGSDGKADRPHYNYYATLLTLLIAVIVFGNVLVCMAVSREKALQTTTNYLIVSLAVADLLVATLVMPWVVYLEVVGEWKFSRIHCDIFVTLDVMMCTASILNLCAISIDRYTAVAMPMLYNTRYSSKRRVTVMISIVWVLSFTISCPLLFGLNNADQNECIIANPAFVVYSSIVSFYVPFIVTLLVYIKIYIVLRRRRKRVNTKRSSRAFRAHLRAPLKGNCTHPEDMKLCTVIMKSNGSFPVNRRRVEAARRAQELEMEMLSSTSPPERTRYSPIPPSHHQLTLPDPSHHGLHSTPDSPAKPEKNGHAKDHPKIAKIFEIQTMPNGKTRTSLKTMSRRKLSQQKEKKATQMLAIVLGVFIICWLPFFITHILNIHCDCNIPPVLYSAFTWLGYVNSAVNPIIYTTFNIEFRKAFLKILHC
- method: HTS Assay for Allosteric Antagonists of the Human D2 Dopamine Receptor: Primary Screen for Antagonists
- assay-setup: HEK293 TREx D2 cells, calcium flux, dopamine EC80; at 10 µM
About 6,900 (2%) of roughly 340,000 compounds were called active. Rule as the data show it: active = inhibition above about 30%; inactive = below that, where a call was filed. For the sample, actives were picked, then their nearest neighbours and some compounds at random.
Hi! Could you answer with just one of these? class 1 for active, class 0 for inactive

CN(C)C(CNC(=O)c1cccc(S(=O)(=O)Nc2ccc(Br)cc2)c1)c1ccco1 (stereo not given) | class 0
O=C(Nc1ccccc1C(=O)Nc1ccncc1)c1ccc([N+](=O)[O-])cc1 | class 0
O=C(COc1ccc([N+](=O)[O-])cc1)Nc1cccc(C(=O)Nc2ccccc2C(=O)O)c1 | class 1
COc1cc([N+](=O)[O-])ccc1NC(=O)COC(=O)CCOc1ccc(C)cc1 | class 0

# lookup: test call for COc1ccc(/C=C/CN2CCCC(C(=O)c3cc(F)ccc3F)C2)cc1 (stereo not given)
class 1

====

- system-under-test: D(2) dopamine receptor (Homo sapiens)
- method: HTS Assay for Allosteric Antagonists of the Human D2 Dopamine Receptor: Primary Screen for Antagonists
- assay-setup: HEK293 TREx D2 cells, calcium flux, dopamine EC80; at 10 µM
The campaign covered roughly 340,000 compounds. About 6,900 (2%) were called active. No stated cut-off is given here; in the data, active means inhibition above about 30%; inactive means below that, where a call was filed. The full list was thinned out, with actives kept by preference.
Hi! Could you answer with just one of these? 1.0 (active), 0.0 (inactive)

CCC1(CC)Cc2ccccc2-c2nc3ccccc3c(=O)n21 | 0.0

# lookup: test call for NC(=O)CSc1c[nH]c2ccccc12
0.0

# lookup: test call for CN(C)C(=O)N=NC(=O)N(C)C
0.0

# lookup: test call for Cc1ccc(S(=O)(=O)N2CCOCC2)cc1NC(=O)COC(=O)c1cnccn1
0.0

# lookup: test call for Cc1ccccc1Nc1nc(N)nc(COC(=O)CCC(=O)c2ccc(F)cc2)n1
0.0

# lookup: test call for C/C(=N\N(C)C)c1ccc(OCCOc2ccc([N+](=O)[O-])cc2)cc1
1.0

# lookup: test call for CCOC(=O)COc1ccc([N+](=O)[O-])cc1
0.0

# lookup: test call for O=C(COC(=O)CCCN1C(=O)c2cccc3cccc(c23)C1=O)NC1CCS(=O)(=O)C1 (stereo not given)
0.0

# lookup: test call for O=C(c1ccc(Cl)c(S(=O)(=O)N2CCCCCC2)c1)N1CCN(c2ccc(O)cc2)CC1
0.0

# lookup: test call for C/C(=N/NC(=O)CC(=O)N/N=C(\C)c1ccc([N+](=O)[O-])cc1)c1ccc([N+](=O)[O-])cc1
0.0

====

- system-under-test: D(2) dopamine receptor (Homo sapiens)
- method: HTS Assay for Allosteric Antagonists of the Human D2 Dopamine Receptor: Primary Screen for Antagonists
- assay-setup: HEK293 TREx D2 cells, calcium flux, dopamine EC80; at 10 µM; hits give high values
In all, about 340,000 compounds went through this assay and about 6,900 (2%) were called active. Many of the other results were omitted from the sample, so actives are more common in it than they were.
Tick true if inhibition is 20% or greater. Tick false if inhibition is less than 20%.

O=c1ccc(S(=O)(=O)N2CCCC2)cn1Cc1nc(-c2ccccc2)no1 | false
CCOC(=O)CSc1nnc(-c2ccco2)n1C | true

Reported inhibition reaches at least 20% for O=S(=O)(Nc1ccc(-n2cnnn2)cc1)c1ccc(Cl)cc1 ?
false

Reported inhibition reaches at least 20% for O=C(CCCn1c(=O)[nH]c2cc(Cl)ccc2c1=O)NCCN1CCN(c2ccccc2)CC1 ?
true

Reported inhibition reaches at least 20% for Nn1c(SCC(=O)Nc2nccs2)nnc1-c1ccco1 ?
false

Reported inhibition reaches at least 20% for O=S(=O)(Nc1cccc(-n2cnnn2)c1)c1cnc(Cl)c(Cl)c1 ?
true

// data source = PubChem BioAssay AID485344
